tested-on: MNK1a (Homo sapiens (Human), UniProt Q9BUB5)
Sequence (Q9BUB5 other isoform, or with tags, fused parts or gaps): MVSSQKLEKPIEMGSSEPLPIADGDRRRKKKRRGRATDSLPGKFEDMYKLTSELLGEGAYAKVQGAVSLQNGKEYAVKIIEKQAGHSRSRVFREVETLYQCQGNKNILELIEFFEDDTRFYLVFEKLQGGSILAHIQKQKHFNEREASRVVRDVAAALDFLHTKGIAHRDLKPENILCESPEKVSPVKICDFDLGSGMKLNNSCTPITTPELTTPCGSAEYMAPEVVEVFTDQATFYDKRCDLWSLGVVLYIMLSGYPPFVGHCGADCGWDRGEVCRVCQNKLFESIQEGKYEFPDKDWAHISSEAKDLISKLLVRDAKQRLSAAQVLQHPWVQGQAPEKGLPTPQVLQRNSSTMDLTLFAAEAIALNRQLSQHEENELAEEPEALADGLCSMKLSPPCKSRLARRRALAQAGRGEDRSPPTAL
experiment-notes: MNK1 in vitro kinase assay (Assay 3), Z'-LYTE
Type: biochemical
condition-description: compound concentration of 1 μM, read-out: MNK1 % INH
reported-metric: inhibition at 1 µM (%)

# example entries with known answers
Cc1cc(N=S(C)(C)=O)cc2ncnc(Nc3ccc(F)cc3O[C@@H]3CN(S(C)(=O)=O)C[C@H]3O)c12 [Example 2.11]
79
CC(=O)N1C[C@@H](O)[C@H](Oc2ncccc2Nc2ncnc3cc(N=S4(=O)CCCC4)cc(C)c23)C1 [Example 2.23]
75
Cc1cc(N=S(C)(C)=O)cc2ncnc(Nc3ccc(Cl)cc3O[C@@H]3COC[C@H]3O)c12 [Example 1.31]
91
O=S1(=Nc2cc(Cl)c3c(Nc4ccc(F)cc4O[C@@H]4COC[C@@H]4O)ncnc3c2)CCCC1 (single isomer, unassigned) [Example 14.9]
100
Cc1cc(N=S(C)(C)=O)cc2ncnc(Nc3ccc(F)cc3O[C@H]3COC[C@H]3O)c12 (racemic) [Example 2.7]
97

I = CC(=O)O[C@@H]1COC[C@@H]1Oc1cc(F)ccc1Nc1ncnc2cc(N=S(C)(C)=O)cc(C)c12 (racemic) [Example 6.9]
II = CC(=O)N1C[C@@H](O)[C@H](Oc2ncccc2Nc2ncnc3cc(N=S(C)(C)=O)cc(C)c23)C1 [Example 2.21]
Sort I and II by inhibition at 1 µM descending and give the first. Select an item and report its label. I
(I: 90%, II: 57%)
